- System: HuVec Cells
- procedureText: Transfection of HuVec cells with DOTMA/DOPE/peptide and eGFP plasmid, fluorescent plate reader
- Type: cell-based
- testContext: DOTMA/DOPE 1:1 plus peptide with RRRRRRRRRRRR (SEQ ID NO: 109) at n terminus; EF1Alpha eGFP plasmid; 0.01 mL complex; 42 hours
# note: exactly 10000 is not below, so it is label 0; use label 1 for RF (Relative Fluorescence) of Transfection of HuVec Cells strictly under it

Field: example entries. Status: answers known.
>  <substance>
452 (CNYYSNSYSFWLASLNPER; Peptidic transfection agent) [compound 452]

>  <assignedLabel>
label 1

$$$$
>  <substance>
218 (SPPRRARVT; Peptidic transfection agent) [compound 218]

>  <assignedLabel>
label 0

$$$$
>  <substance>
355 (FRHRNRKGY; Peptidic transfection agent) [compound 355]

>  <assignedLabel>
label 0

$$$$

State whether 10000 exceeds RF (Relative Fluorescence) of Transfection of HuVec Cells recorded for 345 (TAGSCLRKFSTMFLF; Peptidic transfection agent) [compound 345] .
label 1

State whether 10000 exceeds RF (Relative Fluorescence) of Transfection of HuVec Cells recorded for 336 (GEFYFDLRLKGDK; Peptidic transfection agent) [compound 336] .
label 1

State whether 10000 exceeds RF (Relative Fluorescence) of Transfection of HuVec Cells recorded for 235 (KARSFNVNQLLQD; Peptidic transfection agent) [compound 235] .
label 0

State whether 10000 exceeds RF (Relative Fluorescence) of Transfection of HuVec Cells recorded for 268 (GGFLKYTVSYDI; Peptidic transfection agent) [compound 268] .
label 1

State whether 10000 exceeds RF (Relative Fluorescence) of Transfection of HuVec Cells recorded for 348 (HQQDLGTAGSCLRKFSTM; Peptidic transfection agent) [compound 348] .
label 0

State whether 10000 exceeds RF (Relative Fluorescence) of Transfection of HuVec Cells recorded for 205 (AASIKVAVSADR; Peptidic transfection agent) [compound 205] .
label 1

State whether 10000 exceeds RF (Relative Fluorescence) of Transfection of HuVec Cells recorded for 237 (KNSFMALYLSKG; Peptidic transfection agent) [compound 237] .
label 1

State whether 10000 exceeds RF (Relative Fluorescence) of Transfection of HuVec Cells recorded for 359 (KAFDITYVRLKF; Peptidic transfection agent) [compound 359] .
label 1

State whether 10000 exceeds RF (Relative Fluorescence) of Transfection of HuVec Cells recorded for 332 (TWYKIAFQRNRK; Peptidic transfection agent) [compound 332] .
label 1

State whether 10000 exceeds RF (Relative Fluorescence) of Transfection of HuVec Cells recorded for 343 (LFSHAVSSNG; Peptidic transfection agent) [compound 343] .
label 0

State whether 10000 exceeds RF (Relative Fluorescence) of Transfection of HuVec Cells recorded for 220 (ATETTITIS; Peptidic transfection agent) [compound 220] .
label 1

State whether 10000 exceeds RF (Relative Fluorescence) of Transfection of HuVec Cells recorded for 342 (TAGSCLRKFSTM; Peptidic transfection agent) [compound 342] .
label 0

State whether 10000 exceeds RF (Relative Fluorescence) of Transfection of HuVec Cells recorded for 503 (TAGSCLRKFSTMRRRRRRRRRRRR; Peptidic transfection agent) [compound 503] .
label 0

State whether 10000 exceeds RF (Relative Fluorescence) of Transfection of HuVec Cells recorded for 454 (TGLSCLQRFTTM; Peptidic transfection agent) [compound 454] .
label 0

State whether 10000 exceeds RF (Relative Fluorescence) of Transfection of HuVec Cells recorded for 335 (TVFSVDQDNMLE; Peptidic transfection agent) [compound 335] .
label 1
